Molecular target: Putative pre-mRNA-splicing factor ATP-dependent RNA helicase DHX32 (Homo sapiens, UniProt Q7L7V1)
Sequence (Q7L7V1 whole entry): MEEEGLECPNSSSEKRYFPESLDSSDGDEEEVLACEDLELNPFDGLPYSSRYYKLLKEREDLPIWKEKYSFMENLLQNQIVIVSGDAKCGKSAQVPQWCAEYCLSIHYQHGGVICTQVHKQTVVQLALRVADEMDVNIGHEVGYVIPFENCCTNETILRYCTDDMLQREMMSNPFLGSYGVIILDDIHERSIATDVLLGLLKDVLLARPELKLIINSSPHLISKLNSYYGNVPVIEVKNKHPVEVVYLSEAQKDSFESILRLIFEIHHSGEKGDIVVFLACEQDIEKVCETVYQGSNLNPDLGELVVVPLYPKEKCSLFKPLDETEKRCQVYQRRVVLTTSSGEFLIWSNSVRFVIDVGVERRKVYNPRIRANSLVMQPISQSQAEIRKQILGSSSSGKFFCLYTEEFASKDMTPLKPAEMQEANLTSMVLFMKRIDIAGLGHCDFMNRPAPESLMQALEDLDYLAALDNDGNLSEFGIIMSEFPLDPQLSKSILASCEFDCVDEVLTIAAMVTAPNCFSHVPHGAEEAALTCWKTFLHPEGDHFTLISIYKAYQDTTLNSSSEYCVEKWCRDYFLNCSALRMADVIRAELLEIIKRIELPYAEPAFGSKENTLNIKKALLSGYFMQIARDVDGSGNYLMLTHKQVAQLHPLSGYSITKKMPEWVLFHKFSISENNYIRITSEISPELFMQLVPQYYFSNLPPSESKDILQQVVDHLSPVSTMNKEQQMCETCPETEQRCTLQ
Experiment: Inhibition of N-terminal thioredoxin-tagged human recombinant DHX32 transformed in Escherichia coli BL21(DE3)pLysS cells
pIC50: −log10 of the molar value.
The reader will find reported pIC50 values listed item by item below.
outcome-measure: pIC50

| chemical-smiles | measured-result |
| --- | --- |
| COc1ccc2nc(NC(=O)c3cc(C)n(-c4sc(C)cc4C#N)c3C)[nH]c2c1 | < 4.00 |
| Cc1oc(-n2c(C)cc(/C=C(\C#N)c3nc4ccccc4[nH]3)c2C)c(C#N)c1C | < 5.30 |
